# Time per record follows
test system: Mus musculus; assay: Antiparkinsonian activity against haloperidol-induced catalepsy in Mus musculus Swiss albino (mouse) assessed as decrease in mean descent time at 100 mg/kg, ip administered 30 min prior to haloperidol injection measured after 150 min; format: functional; settings: route intraperitoneal
Respond with the bare value in s.

Illustrative cases are given below, each with its answer.
Query :: Which Time is reported for this compound? `Cc1ccccc1NC(=O)Nc1nc2ccccc2s1`
Result :: 180

Query :: What do we get for `Nc1nc2c(cnn2CCc2ccccc2)c2nc(-c3ccco3)nn12` ?
Result :: 58

Query :: Now try `O=C(Nc1ccc(Oc2ccccc2)cc1)Nc1nc2ccccc2s1` .
Result :: 189

New cases:
Query :: // Time lookup, key: `O=C(Nc1nc2ccccc2s1)Nc1ccccc1F`
Result :: 223

Query :: How about this compound: `O=C(Nc1nc2ccccc2s1)Nc1ccccc1Br`
Result :: 201

Query :: Similarly, `O=C(Nc1nc2ccccc2s1)Nc1cc(C(F)(F)F)ccc1Cl` ?
Result :: 129

Query :: Would you kindly repeat that for `COc1ccc(NC(=O)Nc2nc3ccccc3s2)c(OC)c1` ?
Result :: 107

Query :: Field entry: `O=C(Nc1ccc(Br)cc1)Nc1nc2ccccc2s1`
Result :: 211

----------
tested on: Mus musculus; experiment: Antiparkinsonian activity against haloperidol-induced catalepsy in Mus musculus Swiss albino (mouse) assessed as decrease in mean descent time at 100 mg/kg, ip administered 30 min prior to haloperidol injection measured after 60 min; type: functional; settings: route intraperitoneal
Metric: Time (s)
API: value field is a number in s; no unit string.

Worked examples, 3 molecules total:
Query :: # returns recorded Time (system: Mus musculus) for `COc1ccc(NC(=O)Nc2nc3ccccc3s2)c(OC)c1`
Result :: 41

Query :: Would you kindly repeat that for `O=C(Nc1nc2ccccc2s1)Nc1ccccc1Cl` ?
Result :: 98

Query :: Same thing, different molecule: N[C@@H](Cc1ccc(O)c(O)c1)C(=O)O [LEVODOPA]
Result :: 49

***
Query :: What reported Time corresponds to `O=C(Nc1ccc(Oc2ccccc2)cc1)Nc1nc2ccccc2s1` on Mus musculus?
Result :: 67

Query :: Could you do the same for `COc1ccccc1NC(=O)Nc1nc2ccccc2s1` , please?
Result :: 34

Query :: Cool, now `Cc1ccc(NC(=O)Nc2nc3ccccc3s2)cc1`
Result :: 97

Query :: What about `O=C(Nc1ccc([N+](=O)[O-])cc1)Nc1nc2ccccc2s1` ?
Result :: 138

Query :: Let us now turn to `O=C(Nc1nc2ccccc2s1)Nc1ccccc1Br`
Result :: 128

Query :: Next up: `O=C(Nc1ccc(Cl)cc1)Nc1nc2ccccc2s1`
Result :: 129

Query :: Then what about the molecule `O=C(Nc1nc2ccccc2s1)Nc1ccccc1[N+](=O)[O-]` ?
Result :: 56

Query :: Query `COc1ccc(NC(=O)Nc2nc3ccccc3s2)cc1` next
Result :: 69

Query :: Proceed to `Cc1ccccc1NC(=O)Nc1nc2ccccc2s1`
Result :: 101

Query :: What do we get for `O=C(Nc1cccc(Cl)c1)Nc1nc2ccccc2s1` ?
Result :: 144

Query :: Same read-out for O=C(CCCN1CCC(O)(c2ccc(Cl)cc2)CC1)c1ccc(F)cc1 [HALOPERIDOL] ?
Result :: 242

Query :: // same read-out, input: `O=C(Nc1ccc(Br)cc1)Nc1nc2ccccc2s1`
Result :: 132

Query :: Next molecule: `COc1cc(NC(=O)Nc2nc3ccccc3s2)cc(OC)c1OC`
Result :: 46

Query :: // same read-out, input: `O=C(Nc1nc2ccccc2s1)Nc1cc(C(F)(F)F)ccc1Cl`
Result :: 89

Query :: One more molecule: `O=C(NCc1ccco1)Nc1nc2ccccc2s1`
Result :: 29

Query :: Field entry: `O=C(Nc1nc2ccccc2s1)Nc1ccccc1F`
Result :: 145

Query :: Next molecule: `O=C(Nc1ccc(F)cc1)Nc1nc2ccccc2s1`
Result :: 131

Query :: What about Nc1nc2c(cnn2CCc2ccccc2)c2nc(-c3ccco3)nn12 [SCH-58261] ?
Result :: 19

----------
system: Mus musculus; assay: Antiparkinsonian activity against haloperidol-induced catalepsy in Mus musculus Swiss albino (mouse) assessed as decrease in mean descent time at 100 mg/kg, ip administered 30 min prior to haloperidol injection measured after 180 min; format: functional; conditions: route intraperitoneal
Metric: Time (s)
# number only, unit s dropped from output

Here's what some known entries look like.
Query :: Give its Time value. Item: `O=C(Nc1ccc(Oc2ccccc2)cc1)Nc1nc2ccccc2s1`
Result :: 196

Query :: Another compound: N[C@@H](Cc1ccc(O)c(O)c1)C(=O)O [LEVODOPA]
Result :: 137

Query :: Another compound to look at: `Cc1ccc(NC(=O)Nc2nc3ccccc3s2)cc1`
Result :: 185

Query :: What do you get for `COc1ccc(NC(=O)Nc2nc3ccccc3s2)c(OC)c1` ?
Result :: 149

Query :: `O=C(Nc1nc2ccccc2s1)Nc1ccccc1F` , same question.
Result :: 241

***
Query :: Please look up its Time: `O=C(Nc1ccc(Cl)cc1)Nc1nc2ccccc2s1`
Result :: 220

Query :: What do you have for `Cc1ccccc1NC(=O)Nc1nc2ccccc2s1` ?
Result :: 198

----------
Each entry below carries its reported Time.
test system: Mus musculus; assay: Antiparkinsonian activity against haloperidol-induced catalepsy in Mus musculus Swiss albino (mouse) assessed as decrease in mean descent time at 100 mg/kg, ip administered 30 min prior to haloperidol injection measured after 150 min; format: functional; settings: route intraperitoneal
Express the result in s but write the number alone.

Query :: // Time lookup, key: `O=C(CCCN1CCC(O)(c2ccc(Cl)cc2)CC1)c1ccc(F)cc1`
Result :: 300

More entries:
Query :: Query (molecule): `COc1cc(NC(=O)Nc2nc3ccccc3s2)cc(OC)c1OC` ; field requested: Time
Result :: 115

Query :: `COc1ccc(NC(=O)Nc2nc3ccccc3s2)cc1` , same question.
Result :: 180

Query :: Again, but for `O=C(Nc1cccc(Cl)c1)Nc1nc2ccccc2s1`
Result :: 191

Query :: Proceed to `O=C(Nc1nc2ccccc2s1)Nc1ccccc1[N+](=O)[O-]`
Result :: 99

Query :: // repeat for `N[C@@H](Cc1ccc(O)c(O)c1)C(=O)O` and report
Result :: 122

----------
Measured Time by item
tested on: Mus musculus; assay: Antiparkinsonian activity against haloperidol-induced catalepsy in Mus musculus Swiss albino (mouse) assessed as decrease in mean descent time at 100 mg/kg, ip administered 30 min prior to haloperidol injection measured after 150 min; format: functional; conditions: route intraperitoneal
Give just the numeric value; s need not be written.

Query :: Time lookup needed for `O=C(NCc1ccco1)Nc1nc2ccccc2s1` , thanks.
Result :: 85

Query :: How about `O=C(Nc1nc2ccccc2s1)Nc1ccccc1Cl` ?
Result :: 212

Query :: Further, for `Cc1ccc(NC(=O)Nc2nc3ccccc3s2)cc1` ?
Result :: 171

Query :: Another molecule to check: `O=C(Nc1ccc(F)cc1)Nc1nc2ccccc2s1`
Result :: 234

Query :: For `O=C(Nc1ccc([N+](=O)[O-])cc1)Nc1nc2ccccc2s1` then?
Result :: 234

Next:
Query :: What value of measured Time is listed for `COc1ccccc1NC(=O)Nc1nc2ccccc2s1` ?
Result :: 95

Query :: Query `O=C(Nc1ccc(Cl)cc1)Nc1nc2ccccc2s1` next
Result :: 207

----------
test system: Mus musculus; assay: Antiparkinsonian activity against haloperidol-induced catalepsy in Mus musculus Swiss albino (mouse) assessed as decrease in mean descent time at 100 mg/kg, ip administered 30 min prior to haloperidol injection measured after 180 min; format: functional; settings: route intraperitoneal
Metric: Time (s)
Quick reminder: number only, in s, skip the unit.

Query :: Quick check: Time of `O=C(Nc1cccc(Cl)c1)Nc1nc2ccccc2s1` ?
Result :: 230

Query :: # repeat for `O=C(Nc1nc2ccccc2s1)Nc1cc(C(F)(F)F)ccc1Cl`
Result :: 173

Query :: Now the compound `O=C(NCc1ccco1)Nc1nc2ccccc2s1`
Result :: 95

New cases:
Query :: Would you mind telling me what Time value was observed for `COc1ccccc1NC(=O)Nc1nc2ccccc2s1` ?
Result :: 103

Query :: Query `Nc1nc2c(cnn2CCc2ccccc2)c2nc(-c3ccco3)nn12` next
Result :: 72

Query :: Then this compound: `O=C(Nc1ccc(Br)cc1)Nc1nc2ccccc2s1`
Result :: 216

Query :: Subsequent entry: `O=C(Nc1ccc([N+](=O)[O-])cc1)Nc1nc2ccccc2s1`
Result :: 253

Query :: Then what about the compound `COc1cc(NC(=O)Nc2nc3ccccc3s2)cc(OC)c1OC` ?
Result :: 122

----------
test system: Mus musculus; assay: Antiparkinsonian activity against haloperidol-induced catalepsy in Mus musculus Swiss albino (mouse) assessed as decrease in mean descent time at 100 mg/kg, ip administered 30 min prior to haloperidol injection measured after 180 min; format: functional; details: route intraperitoneal
Metric: Time (s)
// note: answer is a bare numeric in s

Use these answered entries as a reference point.
Query :: Tell me the measured Time of `O=C(Nc1nc2ccccc2s1)Nc1ccccc1Cl` , please.
Result :: 289

Query :: Also `O=C(Nc1nc2ccccc2s1)Nc1ccccc1Br` , if possible.
Result :: 224

Query :: // next record `COc1ccc(NC(=O)Nc2nc3ccccc3s2)cc1`
Result :: 181

Query :: Another: `O=C(CCCN1CCC(O)(c2ccc(Cl)cc2)CC1)c1ccc(F)cc1`
Result :: 300

Query :: Similarly, `O=C(Nc1ccc(F)cc1)Nc1nc2ccccc2s1` ?
Result :: 263

Consider the additional molecule presented here.
Query :: For the molecule `O=C(Nc1nc2ccccc2s1)Nc1ccccc1[N+](=O)[O-]` , what Time is on record?
Result :: 130

Data provenance is ChEMBL document CHEMBL3044751.
